Test system: NCI-H23 lung
ASSAY REMARKS: NCI-60 one-dose screen, 48 h (100 = growth as untreated, 0 = no growth, -100 = all killed)
DETAILS: 10 µM
This is part of a sample that, as a whole, favours compounds with a hit. Of some 83,000 tested, about 20% had one in any assay.
RECORDED METRIC: growth (%)
Respond numerically; units are % and should not be typed.

Worked examples follow.
Prompt: Give measured growth for COc1ccc(-c2cc(-c3cc(OC)ccc3OC)nc(N)c2C#N)cc1 (NCI-H23 lung).
Completion: 68.8

Prompt: Report growth under test system NCI-H23 lung for O=C(CCl)Oc1ccc(OC(=O)CCl)cc1 .
Completion: 78.3

Prompt: Give growth only, for N=C1S/C(=C/c2ccc(-c3ccc4c(c3)C(=O)NC4=O)o2)C(=O)N1c1ccc(Br)cc1 , using NCI-H23 lung data.
Completion: 55.8

Prompt: Tell me growth of CCOC(=O)N/N=C/c1ccc(OC)c(OC)c1 when tested on NCI-H23 lung.
Completion: 113

Prompt: Fill: growth (NCI-H23 lung) for this compound CCOS(=O)(=O)c1c(C(C)C)cc(C(C)C)cc1C(C)C
Completion: 98.4

Prompt: Write down the reported growth (system: NCI-H23 lung) of CC(=O)Nc1ccc2c(c1)C(=O)c1cccc(C(=O)O)c1-2
Completion: 104

The record that follows has no growth shown yet.
Prompt: // fetch growth; item: Cc1cc(O)ccc1C1=NN(c2ccc(S(C)(=O)=O)cc2)C(=O)CC1 ; system: NCI-H23 lung
Completion: 32.9

----------
System: HT29 colon
ASSAY REMARKS: NCI-60 one-dose screen, 48 h
DETAILS: 10 µM
About 83,000 compounds went through this panel and 20% of them were active in at least one assay; those are over-represented in the sample as a whole. Activity calls are given as the source filed them. How the source made its calls: active means growth percent below 10; inactive means the rest.
Outcome field: choose from active, inactive

See these solved cases before continuing.
Prompt: Call for entry Cc1cc(=O)n2nnc3cc(Cl)c(Cl)cc3n12 :
Completion: inactive

Prompt: Hey, what did the test say about CCOC(=O)c1cc(C(=O)c2cc(OC)c(OC)c(OC)c2)n2c1ccc1c3cccnc3ccc12 ?
Completion: inactive

Prompt: Fill in: this test's call for COc1cc(-c2nn(-c3cccc(NC(=O)CCN4CCN(Cc5ccccc5)CC4)c3)cc2-c2ccncc2)ccc1Cl is ___
Completion: active

Prompt: Write down the call the test reported for this compound. Item: CN(C)CCC1(c2ccccc2)CCN(C)C1=O (centres undefined)
Completion: inactive

Prompt: Tell me the recorded outcome of this test for C=CCNCCN1C(=O)c2ccc3c4c(ccc(c24)C1=O)C(=O)N(CCNCC=C)C3=O .
Completion: active

New cases:
Prompt: Returns: the outcome recorded for Nc1ncnc2c1ncn2C1(CO)OCC(O)C(O)C1O (centres undefined) in this assay.
Completion: inactive

Prompt: Hi, sorry to bother you, what did the test record for O=c1[nH]c(=O)n(C2C[C@H](O)[C@@H](CO)O2)cc1C(F)(F)F (some centres undefined) ?
Completion: inactive

Prompt: In this assay, the call recorded for CSc1nc2c(c(=O)n1C)CN(Cc1ccccc1)C(=O)CN2 was what?
Completion: inactive

Prompt: For COc1ccc(-c2cc(-c3ccc(Cl)cc3)nc(SCCCCCCC(=O)NO)n2)cc1OC , which call appears in the assay record?
Completion: inactive

----------
Tested on: RXF 393 renal
ASSAY REMARKS: NCI-60 one-dose screen, 48 h (100 = growth as untreated, 0 = no growth, -100 = all killed)
DETAILS: 10 µM
About 83,000 compounds went through this panel and 20% of them were active in at least one assay; those are over-represented in the sample as a whole.
RECORDED METRIC: growth (%)
Kindly answer with a numeric value in %, unit omitted.

The cases that follow already have their growth on record.
Prompt: Send back RXF 393 renal growth of COc1cc2cc(Oc3ccc(NC(=O)Nc4ccc(Cl)c(C(F)(F)F)c4)cc3)c(C)nc2cc1OC only.
Completion: -33.4

Prompt: State measured growth of the molecule c1cnc2[nH]cc(-c3nc(-c4ccsc4)cs3)c2c1 with RXF 393 renal.
Completion: 98.3

Prompt: GET growth where system = RXF 393 renal and item = COc1ccc(-c2cc(-c3ccc(Cl)cc3)nc(SCCCC(=O)NO)n2)cc1
Completion: -21

Prompt: Enter measured growth, system RXF 393 renal, for the molecule shown: O=C1CC(=O)N(C(=O)c2nn(-c3ccc(Cl)cc3)cc2O)N1
Completion: 53.3

Prompt: Give growth for this entry on RXF 393 renal: COc1ccc(-c2nn(-c3cccc(Cl)c3)cc2-c2c(C#N)c(=O)n3[nH]c(-c4ccccc4)nc3c2C#N)cc1
Completion: 95.9

Next:
Prompt: Lab note: RXF 393 renal assay, enter growth for COc1cccc2ccc(CC(O)(c3ccccc3)c3ccccc3)nc12 here
Completion: 108

Prompt: Report growth on RXF 393 renal for this entry: O=S(=O)(O)c1ccc(Cl)cc1
Completion: 123

----------
Tested on: U251 CNS
ASSAY REMARKS: NCI-60 one-dose screen, 48 h (100 = growth as untreated, 0 = no growth, -100 = all killed)
DETAILS: 10 µM
Method: Growth inhibition of the U251 human tumor cell line is measured as a screen for anti-cancer activity. Cells are grown in 96 well plates and exposed to the test compound for 48 hours. Compounds are tested at a single concentration, which is 10^-5 M for most compounds. The reported endpoint is percent growth (GI% or GIPRCNT), where numbers from 0 - 100% represent growth inhibition, and numbers from -100% - 0 represent cell death. For example, a value of 40 represents 60% growth inhibition. […]
This is part of a sample that, as a whole, favours compounds with a hit. Of some 83,000 tested, about 20% had one in any assay.
RECORDED METRIC: growth (%)
All answers are understood in %, so give the number only.

Take a look at these entries with their results.
Prompt: Recall and state the measured growth for C=C1CCC2(C#N)[C@H]3[C@H](CC[C@@H]2C)[C@@H](C)C[C@@H](CC(C)(C)NC(=O)CN2CCC2=O)[C@H]13 (stereo not given in full) .
Completion: 33.6

Prompt: Check the records and state growth for CN(C)c1ccc(/C=N/NC(=O)c2cccc3ccccc23)c(Cl)c1
Completion: 23.9

Prompt: Tell us which growth value is on record for CCOC(=O)C(C)(c1ccccc1)c1ccccc1
Completion: 104

Prompt: Supply measured growth of O=C(CCCNC(=O)c1nc(-c2ccccc2)n(-c2ccccc2)n1)NO in your reply.
Completion: 94.6

More entries:
Prompt: Item Cc1ccc(C(C)C)c(O)c1NC(=O)OC(C)C : provide growth
Completion: 105

----------
Test system: MDA-MB-231 breast
ASSAY REMARKS: NCI-60 one-dose screen, 48 h
DETAILS: 10 µM
Method: Cells are grown in 96 well plates and exposed to the test compound for 48 hours. Compounds are tested at a single concentration, which is 10^-5 M for most compounds. The reported endpoint is percent growth (GI% or GIPRCNT), where numbers from 0 - 100% represent growth inhibition, and numbers from -100% - 0 represent cell death. For example, a value of 40 represents 60% growth inhibition. A value of 0 means no net growth occurred over the course of the experiment. […]
The panel holds about 83,000 compounds, 20% with a hit somewhere; the sample as a whole holds those more often. Active and inactive are the calls of the source. How the source made its calls: active means growth percent below 10; inactive means the rest.
Answer with one of the outcomes given here: true (1) = active, false (0) = inactive

Before answering, review these 4 worked examples.
Prompt: Given Clc1ccc2c(c1)C(N1CCNCC1)=Nc1ccccc1O2 , state the outcome it received in this test.
Completion: false (0)

Prompt: // param item: COc1cc(C(=O)/C(C)=C/c2c[nH]c3ccccc23)cc(OC)c1OC ; yields the recorded call
Completion: false (0)

Prompt: Given COc1ccc2c(c1)C(CC(=O)NN)CCC2 (stereo not given) , state the outcome it received in this test.
Completion: false (0)

Prompt: Could you kindly confirm the outcome this assay logged for CCCN(CCC)C(=O)[C@H](CC)[C@@H]1CC[C@@H](C)[C@@H]([C@H](C)[C@@H](O)[C@@H](C)C(=O)[C@H](CC)C2O[C@]3(C=C[C@@H](O)[C@]4(CC[C@@](C)([C@H]5CC[C@](O)(CC)[C@H](C)O5)O4)O3)[C@H](C)C[C@@H]2C)O1 (stereo not given in full) ?
Completion: true (1)

Further cases:
Prompt: Dear all, I need the recorded test outcome for O=C(O)c1cn(C2CC2)c2cc(N3CCN(C(=O)c4cc(-c5ccc(Cl)cc5)nc5ccccc45)CC3)c(F)cc2c1=O , thank you.
Completion: false (0)

----------
Test system: U251 CNS
ASSAY REMARKS: NCI-60 one-dose screen, 48 h (100 = growth as untreated, 0 = no growth, -100 = all killed)
DETAILS: 10 µM
Compounds without any hit were thinned out: in the full panel of roughly 83,000, 20% have a hit.
RECORDED METRIC: growth (%)
# value in %; strip the unit string

Prompt: Return the recorded growth value; entry: O=C(Nc1nc(-c2ccccc2)nc2c1sc(=S)n2-c1ccccc1)C(F)(F)F
Completion: 90.6

Prompt: Output growth of CC(=O)Oc1cc(OC(C)=O)c2ccccc2c1OC(C)=O
Completion: 94

Prompt: Answer with the recorded growth of O=C1c2c(c(=O)[nH]c3ccccc23)CCN1Cc1ccccc1 only.
Completion: 103

Prompt: Look up and report measured growth for this entry: Cc1cc(Cl)ccc1Nc1nc(C(F)(F)F)ccc1C(=O)N/N=C/c1c(Cl)cccc1Cl
Completion: -1.74

Prompt: Read the entry CN1CCN(CC(=O)Nc2cccc(-n3cc(-c4ccncc4)c(-c4ccc(Cl)c(O)c4)n3)c2)CC1 and write its reported growth.
Completion: 30.8

Now look at this one.
Prompt: Output measured growth for this item: CCN(CC)CC(=O)N(CC)c1ccc(C)c(Cl)c1
Completion: 87

Data provenance is PubChem BioAssay (NCI).
